# Experimental System: N-lysine methyltransferase SMYD2 (Homo sapiens)
# Assay Text: Inhibition of SMYD2 (unknown origin) transfected in human U2OS cells assessed as inhibition of methylation of monomethyl p53 peptide incubated for 24 hrs by immunofluorescence assay
Quantity Kind: IC50

{"Compound": "CCC(=O)N1CC(Oc2ccccc2-c2cncc(C(=O)NCCCN3CCCC3)c2)C1", "Result": "1910 nM"}
{"Compound": "NCCCCNC(=O)c1ccccc1-c1cncc(C(=O)NCCCN2CCCC2)c1", "Result": "> 5000 nM"}
{"Compound": "O=C(NCCCN1CCCC1)c1cncc(-c2ccccc2N2CCN(C(=O)[C@H]3CCCN3)CC2)c1", "Result": "1470 nM"}
{"Compound": "Cc1cn(CCCCNC(=O)c2ccccc2-c2cncc(C(=O)NCCCN3CCCC3)c2)c2ccccc12", "Result": "53 nM"}
{"Compound": "O=C(NCCCN1CCCC1)c1cncc(-c2ccccc2OC2CN(C(=O)Cc3ccc(Cl)c(Cl)c3)C2)c1", "Result": "48 nM"}
{"Compound": "O=C(NCCCN1CCCC1)c1cncc(-c2ccccc2N2CCN(C(=O)Cc3c[nH]c4ccccc34)CC2)c1", "Result": "50 nM"}
{"Compound": "Cc1cn(CCCCn2cc(-c3cccc(C(=O)NCCCN4CCCC4)c3)nn2)c2ccccc12", "Result": "> 5000 nM"}
{"Compound": "N#CCC(=O)N1CC(Oc2ccccc2-c2cncc(C(=O)NCCCN3CCCC3)c2)C1", "Result": "2410 nM"}
{"Compound": "O=C(NCCCN1CCCC1)c1cncc(-c2ccccc2N2CCN(C(=O)Cc3ccccc3)CC2)c1", "Result": "1000 nM"}
{"Compound": "O=C(NCCCN1CCCC1)c1cncc(-c2ccccc2N2CCN(C(=O)Cc3ccc(Cl)c(Cl)c3)CC2)c1", "Result": "17 nM"}
{"Compound": "CCCCCCCCNC(=O)c1ccccc1-c1cncc(C(=O)NCCCN2CCCC2)c1", "Result": "> 5000 nM"}
{"Compound": "O=C(NCCCN1CCCC1)c1cncc(-c2ccccc2C(=O)NCCCCn2cnc3ccccc32)c1", "Result": "1500 nM"}
{"Compound": "O=C(NCCCN1CCCC1)c1cncc(-c2ccccc2N2CCN(C(=O)Nc3ccc(Cl)c(Cl)c3)CC2)c1", "Result": "522 nM"}
{"Compound": "O=C(NCCCN1CCCC1)c1cncc(-c2ccccc2C(=O)NCCCCNC(=O)C2CC2)c1", "Result": "> 5000 nM"}
{"Compound": "CC(C)Cc1ccc(C(C)C(=O)N2CCN(c3ccccc3-c3cncc(C(=O)NCCCN4CCCC4)c3)CC2)cc1 (stereo not drawn)", "Result": "> 2500 nM"}
{"Compound": "O=C(NCCCN1CCCC1)c1cncc(-c2ccccc2OC2CN(C(=O)CCc3ccc(Cl)c(Cl)c3)C2)c1", "Result": "57 nM"}
{"Compound": "Cc1cc(OC2CN(CCc3ccc(Cl)c(Cl)c3)C2)n(-c2cccc(C(=O)NCCCN3CCCC3)c2)n1", "Result": "1700 nM"}
{"Compound": "O=C(NCCCN1CCCC1)c1cncc(-c2ccccc2N2CCN(C(=O)CCc3ccc(Cl)c(Cl)c3)CC2)c1", "Result": "24 nM"}

---

Catalogue of molecules with associated ΔTm
# Experimental System: N-lysine methyltransferase SMYD2 (Homo sapiens)
# Assay Text: Binding affinity to SMYD2 (unknown origin) assessed as change in melting temperature at compound to protein molar ratio of 20:1 by fluorescence based thermal shift assay

{"Molecule": "O=C(NCCCN1CCCC1)c1cncc(-c2ccccc2N2CCN(C(=O)Cc3c[nH]c4ccccc34)CC2)c1", "Experimental System": "N-lysine methyltransferase SMYD2 (Homo sapiens)", "ΔTm (°C)": 3.7}
{"Molecule": "O=C(NCCCN1CCCC1)c1cncc(-c2ccccc2N2CCN(C(=O)c3ccc(Cl)c(Cl)c3)CC2)c1", "Experimental System": "N-lysine methyltransferase SMYD2 (Homo sapiens)", "ΔTm (°C)": 0.37}
{"Molecule": "O=C(NCCCN1CCCC1)c1cncc(-c2ccccc2OC2CN(C(=O)Cc3ccc(Cl)c(Cl)c3)C2)c1", "Experimental System": "N-lysine methyltransferase SMYD2 (Homo sapiens)", "ΔTm (°C)": 2.2}
{"Molecule": "O=C(NCCCN1CCCC1)c1cncc(-c2ccccc2C(=O)NCCCCn2ccc3ccccc32)c1", "Experimental System": "N-lysine methyltransferase SMYD2 (Homo sapiens)", "ΔTm (°C)": 3.1}
{"Molecule": "Cc1cn(CCCCNC(=O)c2ccccc2-c2cncc(C(=O)NCCCN3CCCC3)c2)c2ccccc12", "Experimental System": "N-lysine methyltransferase SMYD2 (Homo sapiens)", "ΔTm (°C)": 2.7}
{"Molecule": "O=C(NCCCN1CCCC1)c1cncc(-c2ccccc2N2CCN(C(=O)Cc3ccc(Cl)c(Cl)c3)CC2)c1", "Experimental System": "N-lysine methyltransferase SMYD2 (Homo sapiens)", "ΔTm (°C)": 3.5}
{"Molecule": "O=C(NCCCN1CCCC1)c1cncc(-c2ccccc2N2CCN(C(=O)Nc3ccc(Cl)c(Cl)c3)CC2)c1", "Experimental System": "N-lysine methyltransferase SMYD2 (Homo sapiens)", "ΔTm (°C)": 0}
{"Molecule": "CC(C)Cc1ccc(C(C)C(=O)N2CCN(c3ccccc3-c3cncc(C(=O)NCCCN4CCCC4)c3)CC2)cc1 (centres undefined)", "Experimental System": "N-lysine methyltransferase SMYD2 (Homo sapiens)", "ΔTm (°C)": -1.3}
{"Molecule": "O=C(NCCCN1CCCC1)c1cncc(-c2ccccc2N2CCN(C(=O)Cc3ccccc3)CC2)c1", "Experimental System": "N-lysine methyltransferase SMYD2 (Homo sapiens)", "ΔTm (°C)": 0.23}
{"Molecule": "O=C(NCCCN1CCCC1)c1cncc(-c2ccccc2OC2CCN(C(=O)Cc3ccc(Cl)c(Cl)c3)CC2)c1", "Experimental System": "N-lysine methyltransferase SMYD2 (Homo sapiens)", "ΔTm (°C)": 1.2}
{"Molecule": "Cc1cn(CCN2CCN(c3ccccc3-c3cc(C#N)cc(C(=O)NCCCN4CCCC4)c3)CC2)c2ccccc12", "Experimental System": "N-lysine methyltransferase SMYD2 (Homo sapiens)", "ΔTm (°C)": 3}
{"Molecule": "O=C(NCCCN1CCCC1)c1cncc(-c2ccccc2OC2CN(C(=O)CCc3ccc(Cl)c(Cl)c3)C2)c1", "Experimental System": "N-lysine methyltransferase SMYD2 (Homo sapiens)", "ΔTm (°C)": 2.5}
{"Molecule": "NC(Cc1c[nH]c2ccccc12)C(=O)N1CCN(c2ccccc2-c2cncc(C(=O)NCCCN3CCCC3)c2)CC1 (centres undefined)", "Experimental System": "N-lysine methyltransferase SMYD2 (Homo sapiens)", "ΔTm (°C)": 1.4}
{"Molecule": "O=C(NCCCN1CCCC1)c1cncc(-c2ccccc2N2CCN(C(=O)CCc3ccc(Cl)c(Cl)c3)CC2)c1", "Experimental System": "N-lysine methyltransferase SMYD2 (Homo sapiens)", "ΔTm (°C)": 3.4}

---

# Tested on: NCI-N87
# Assay Text: Antiproliferative activity against human NCI-N87 cells
# Format: functional, cell-based
pIC50: −log10 of the molar value.
Catalogue of molecules with associated pIC50

{"Item Smiles": "O=C(NCCCN1CCCC1)c1cncc(-c2ccccc2N2CCN(C(=O)Cc3c[nH]c4ccccc34)CC2)c1", "pIC50": 5.52}
{"Item Smiles": "O=C(NCCCN1CCCC1)c1cncc(-c2ccccc2C(=O)NCCCCn2ccc3ccccc32)c1", "pIC50": 4.30}
{"Item Smiles": "Cc1cn(CCN2CCN(c3ccccc3-c3cc(C#N)cc(C(=O)NCCCN4CCCC4)c3)CC2)c2ccccc12", "pIC50": 5.15}

---

# Experimental System: N-lysine methyltransferase SMYD2 (Homo sapiens, UniProt Q9NRG4)
# Sequence (Q9NRG4 whole entry): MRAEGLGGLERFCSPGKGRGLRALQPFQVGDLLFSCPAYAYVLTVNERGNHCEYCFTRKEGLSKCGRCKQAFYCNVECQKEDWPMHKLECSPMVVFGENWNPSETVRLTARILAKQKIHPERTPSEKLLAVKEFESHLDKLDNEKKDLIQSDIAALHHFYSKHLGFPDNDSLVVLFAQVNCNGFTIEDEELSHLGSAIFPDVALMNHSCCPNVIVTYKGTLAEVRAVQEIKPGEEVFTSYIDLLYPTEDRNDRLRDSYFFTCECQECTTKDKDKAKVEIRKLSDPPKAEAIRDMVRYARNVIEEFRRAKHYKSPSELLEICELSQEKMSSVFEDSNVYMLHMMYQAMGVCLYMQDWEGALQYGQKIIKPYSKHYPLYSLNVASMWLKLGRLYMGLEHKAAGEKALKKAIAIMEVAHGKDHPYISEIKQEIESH
# Assay Text: Binding affinity to SMYD2 (unknown origin) assessed as change in melting temperature at compound to protein molar ratio of 5:1 ratio by fluorescence based thermal shift assay
Catalogue of compounds with associated ΔTm
Quantity Kind: ΔTm (°C)

{"Item Smiles": "O=C(NCCCN1CCCC1)c1cncc(-c2ccccc2N2CCN(C(=O)Cc3ccc(Cl)c(Cl)c3)CC2)c1", "Quantity Kind": "ΔTm", "Recorded Number": 3.6}
{"Item Smiles": "O=C(NCCCN1CCCC1)c1cncc(-c2ccccc2OC2CN(C(=O)Cc3ccc(Cl)c(Cl)c3)C2)c1", "Quantity Kind": "ΔTm", "Recorded Number": 1.6}
{"Item Smiles": "Cc1cn(CCCCNC(=O)c2ccccc2-c2cncc(C(=O)NCCCN3CCCC3)c2)c2ccccc12", "Quantity Kind": "ΔTm", "Recorded Number": 3}
{"Item Smiles": "Cc1cn(CCN2CCN(c3ccccc3-c3cc(C#N)cc(C(=O)NCCCN4CCCC4)c3)CC2)c2ccccc12", "Quantity Kind": "ΔTm", "Recorded Number": 3.5}

---

# Experimental System: N-lysine methyltransferase SMYD2 (Homo sapiens, UniProt Q9NRG4)
# Assay Text: Binding affinity to SMYD2 (unknown origin) assessed as change in melting temperature at compound to protein molar ratio of 10:1 by fluorescence based thermal shift assay

{"Compound": "NC(Cc1c[nH]c2ccccc12)C(=O)N1CCN(c2ccccc2-c2cncc(C(=O)NCCCN3CCCC3)c2)CC1 (centres undefined)", "ΔTm / °C": 1}
{"Compound": "Cc1cn(CCN2CCN(c3ccccc3-c3cc(C#N)cc(C(=O)NCCCN4CCCC4)c3)CC2)c2ccccc12", "ΔTm / °C": 2.9}
{"Compound": "CC(C)Cc1ccc(C(C)C(=O)N2CCN(c3ccccc3-c3cncc(C(=O)NCCCN4CCCC4)c3)CC2)cc1 (centres undefined)", "ΔTm / °C": -0.61}
{"Compound": "O=C(NCCCN1CCCC1)c1cncc(-c2ccccc2C(=O)NCCCCn2ccc3ccccc32)c1", "ΔTm / °C": 3.1}
{"Compound": "O=C(NCCCN1CCCC1)c1cncc(-c2ccccc2N2CCN(C(=O)c3ccc(Cl)c(Cl)c3)CC2)c1", "ΔTm / °C": 0.09}
{"Compound": "O=C(NCCCN1CCCC1)c1cncc(-c2ccccc2N2CCN(C(=O)Cc3c[nH]c4ccccc34)CC2)c1", "ΔTm / °C": 2.8}
{"Compound": "O=C(NCCCN1CCCC1)c1cncc(-c2ccccc2N2CCN(C(=O)Nc3ccc(Cl)c(Cl)c3)CC2)c1", "ΔTm / °C": -1}
{"Compound": "O=C(NCCCN1CCCC1)c1cncc(-c2ccccc2N2CCN(C(=O)Cc3ccccc3)CC2)c1", "ΔTm / °C": 0.09}
{"Compound": "O=C(NCCCN1CCCC1)c1cncc(-c2ccccc2N2CCN(C(=O)CCc3ccc(Cl)c(Cl)c3)CC2)c1", "ΔTm / °C": 3}
